We begin with pIC50 values for Aldo-keto reductase family 1 member B1 (Sus scrofa, UniProt P80276), as collected from the published literature.
The quantity pIC50 is defined as the negative base-10 logarithm of the molar concentration.

COc1ccc(CCNC(=O)CCC(=O)O)cc1 : 3.77

// compound `O=C(O)Cc1cc(I)cc(Cc2nc3c(F)c(F)cc(F)c3s2)c1` , assay Aldo-keto reductase family 1 member B1 (Sus scrofa, UniProt P80276), pIC50 value: 7.96

The recorded pIC50 with Aldo-keto reductase family 1 member B1 (Sus scrofa, UniProt P80276) for `O=C(O)/C=C/C(=O)NCCc1ccccc1` was 4.14

Value sought: pIC50, system Aldo-keto reductase family 1 member B1 (Sus scrofa, UniProt P80276), item `COc1cc(C(=O)NCCc2ccc(O)cc2)cc(OC)c1OC` . Result: 4.00

Sample `O=C(O)CCC(=O)NCCc1ccc(F)cc1` , system: Aldo-keto reductase family 1 member B1 (Sus scrofa, UniProt P80276). Its pIC50 is 4.03

Entry `O=C(O)CCCC(=O)NCc1ccccc1` : pIC50 on Aldo-keto reductase family 1 member B1 (Sus scrofa, UniProt P80276) = 3.88

Summary: `COc1cc(-c2oc3cc(OS(=O)(=O)O)cc(O)c3c(=O)c2OS(=O)(=O)O)ccc1O` , Aldo-keto reductase family 1 member B1 (Sus scrofa, UniProt P80276), pIC50 = 5.74

Test item `O=C(O)CCC(=O)NCCc1ccc(Br)cc1` ; Aldo-keto reductase family 1 member B1 (Sus scrofa, UniProt P80276); reported pIC50 was 4.03

pIC50 for Aldo-keto reductase family 1 member B1 (Sus scrofa, UniProt P80276) with input O=C1CC2(C(=O)N1)C(=O)N(Cc1ccc(Br)cc1F)C(=O)c1cc(Br)c(Br)n12 (configuration not stated) equals 7.28

Entry `O=C(O)CCC(=O)n1ccc2c(O)cccc21` ; assay system Aldo-keto reductase family 1 member B1 (Sus scrofa, UniProt P80276); pIC50 recorded at 5.13

Here `CC(=O)NCCc1ccc(O)cc1` was tested on Aldo-keto reductase family 1 member B1 (Sus scrofa, UniProt P80276), and its pIC50 came to 3.80

Form field, pIC50 with Aldo-keto reductase family 1 member B1 (Sus scrofa, UniProt P80276), item O=C1CC2(C(=O)N1)C(=O)N(c1ccccc1)C(=O)c1cccn12 (configuration not stated) : 6.70

====

Record: compiled IC50 on Aldo-keto reductase family 1 member B1 (Sus scrofa, UniProt P80276) from multiple reports.
Class definitions on IC50: bottom range = under 0.3 µM, center range = from 0.3 µM up to 100 µM, top range = 100 µM and over

O=C(O)c1ccccc1C(=O)NCCc1ccc(O)cc1 : top range
O=C(O)Cc1cc(Cl)cc(Cc2nc3c(F)c(F)cc(F)c3s2)c1 : bottom range
O=C(O)/C=C/C(=O)NCCc1ccc(F)cc1 : center range
O=C(O)CCCC(=O)NCCc1ccc(Br)cc1 : top range
O=C(O)c1ccccc1C(=O)NCc1ccccc1 : top range
COc1ccc2c(C(=S)N(C)CC(=O)O)cccc2c1C(F)(F)F : bottom range
O=C(O)c1ccccc1C(=O)NCCc1ccccc1 : center range
O=C(NCCc1ccc(O)cc1)c1ccccc1 : top range
COc1ccc(CN2C(=O)c3cccn3C3(CC(=O)NC3=O)C2=O)c(OC)c1 (configuration not stated) : center range
O=C(O)/C=C/C(=O)n1ccc2ccccc21 : center range

Which of the defined bands does the recorded IC50 of `O=C(O)Cc1ccc(Cc2nc3c(F)c(F)cc(F)c3s2)cc1` sit within?
bottom range

====

Below are pIC50 measurements against UniProtKB P80276 drawn from the literature.
Kindly note that pIC50 refers to -log10 of the concentration in mol/L and answer with the value alone.

Some solved cases for reference:
O=C(O)c1ccccc1C(=O)NCCc1ccc(Br)cc1 : 4.09
O=C(O)Cc1cc(F)cc(Cc2nc3c(F)c(F)cc(F)c3s2)c1 : 8.06
O=c1c(OS(=O)(=O)O)c(-c2ccc(O)c(O)c2)oc2cc(O)cc(O)c12 : 4.29
O=C(O)/C=C/C(=O)Nc1ccccc1 : 3.74
O=C1C[C@]2(C(=O)N1)C(=O)N(Cc1ccc(Br)cc1F)C(=O)c1cccn12 : 6.72
CN1C(=O)c2cccn2C2(CC(=O)NC2=O)C1=O (configuration not stated) : 6.55

// pIC50 value for `O=C(O)CCC(=O)NCCc1ccccc1` : 4.11

Entry under test: `O=C1C[C@@]2(C(=O)N1)C(=O)N(Cc1ccc(Br)cc1F)C(=O)c1cccn12` . Its pIC50 was 7.82

response.value for O=C(O)CCC1C(=O)N(Cc2ccc(Br)cc2F)C(=O)c2cccn21 (configuration not stated) (field: pIC50) = 6.10

Please fill in: pIC50 reported for `O=C(O)c1ccccc1C(=O)n1ccc2ccccc21` = 4.52

====

pIC50 values for Aldo-keto reductase family 1 member B1 (Sus scrofa) compiled from several publications are listed below.
pIC50: −log10 of the molar value.
Classification field: enter criterion met for pIC50 values not below 4, criterion not met for values below it.

Worked examples, 5 compounds total:
O=C(O)CCC(=O)NCCc1ccc(O)cc1 : criterion not met
O=C1CC2(C(=O)N1)C(=O)N(CCc1ccccc1)C(=O)c1cccn12 (configuration not stated) : criterion met
COc1cc(-c2oc3cc(O)cc(O)c3c(=O)c2OS(=O)(=O)O)ccc1O : criterion met
O=C(O)Cc1nn(Cc2ccc(Br)cc2F)c(=O)c2ccccc12 : criterion met
CCCCCCCCCCCCCCCC(=O)NCCc1ccc(O)cc1 : criterion not met

In plain terms: is recorded pIC50 at least 4 for CCC(C)C(=O)NCCc1ccc(O)cc1 (configuration not stated) ?
criterion not met

pIC50 >= 4 for `COc1ccc(CCNC(=O)c2ccccc2C(=O)O)cc1` ?
criterion not met
